Biological target: 5-hydroxytryptamine receptor 1A (Mus musculus) (UniProt Q64264)
Sequence (whole entry): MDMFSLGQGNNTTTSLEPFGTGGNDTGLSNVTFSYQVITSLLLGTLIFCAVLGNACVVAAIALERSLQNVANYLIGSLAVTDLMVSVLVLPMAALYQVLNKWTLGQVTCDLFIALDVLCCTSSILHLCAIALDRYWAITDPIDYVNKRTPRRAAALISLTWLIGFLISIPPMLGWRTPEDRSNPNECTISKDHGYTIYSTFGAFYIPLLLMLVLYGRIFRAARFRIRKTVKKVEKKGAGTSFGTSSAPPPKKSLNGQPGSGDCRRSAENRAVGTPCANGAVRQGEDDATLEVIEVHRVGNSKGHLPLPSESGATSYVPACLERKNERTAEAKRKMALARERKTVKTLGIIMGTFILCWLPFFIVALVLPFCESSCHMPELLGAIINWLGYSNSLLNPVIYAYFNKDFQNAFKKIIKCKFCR
Assay: Antagonist activity at 5-hydroxytryptamine 1A receptor against (+)-8-OH-DPAT induced hypothermia in mice at 10 mg/kg after 15 min
Format: functional, organism-based
Parameters: dose 10 mg/kg
Label Criterion met when Change in body temperature < -1 °C; otherwise Criterion not met.

>>> df
                                   compound              group
0  OC(CCN1CCN(c2cccc3[nH]ccc23)CC1)c1csc2ccc(F)cc12 (stereo not given)  Criterion not met
1  OC(CCN1CCN(c2cccc3c2OCCO3)CC1)c1csc2ccc(F)cc12 (stereo not given)      Criterion met
2  OC(CCN1CCN(c2cccc3cccnc23)CC1)c1csc2ccccc12 (stereo not given)  Criterion not met
3  OC(CCN1CCN(c2cccc3c2OCCO3)CC1)c1csc2ccccc12 (stereo not given)      Criterion met
4  OC(CCN1CCN(c2cccc3[nH]ccc23)CC1)c1csc2ccccc12 (stereo not given)      Criterion met

* * *

molecular target: 5-hydroxytryptamine receptor 1A (Mus musculus); experiment: Antagonist activity at 5-hydroxytryptamine 1A receptor against (+)-8-OH-DPAT induced hypothermia in mice at 1 mg/kg after 15 min; type: functional, organism-based; parameters: dose 1 mg/kg
quantity measured: Change in body temperature

>>> df
                                   molecule  observed_result
0  OC(CCN1CCN(c2cccc3[nH]ccc23)CC1)c1csc2ccc(F)cc12 (stereo not given)         -3.28 °C
1  OC(CCN1CCN(c2cccc3[nH]ccc23)CC1)c1csc2ccccc12 (stereo not given)         -2.08 °C
2  OC(CCN1CCN(c2cccc3cccnc23)CC1)c1csc2ccccc12 (stereo not given)         -2.38 °C
3  OC(CCN1CCN(c2cccc3c2OCCO3)CC1)c1csc2ccccc12 (stereo not given)          -2.9 °C
4  OC(CCN1CCN(c2cccc3c2OCCO3)CC1)c1csc2ccc(F)cc12 (stereo not given)         -1.49 °C

* * *

biological target: 5-hydroxytryptamine receptor 1A (Rattus norvegicus) (UniProt P19327); assay: Percent inhibition of (+)-8-OH-DPAT stimulated [35S]GTP-gamma-S, binding to 5-hydroxytryptamine 1A receptor in hippocampal membranes; assay type: functional, cell membranes; set-up: concentration or dose not given beside the values; conditions: concentration not given here
Sequence (P19327 whole entry): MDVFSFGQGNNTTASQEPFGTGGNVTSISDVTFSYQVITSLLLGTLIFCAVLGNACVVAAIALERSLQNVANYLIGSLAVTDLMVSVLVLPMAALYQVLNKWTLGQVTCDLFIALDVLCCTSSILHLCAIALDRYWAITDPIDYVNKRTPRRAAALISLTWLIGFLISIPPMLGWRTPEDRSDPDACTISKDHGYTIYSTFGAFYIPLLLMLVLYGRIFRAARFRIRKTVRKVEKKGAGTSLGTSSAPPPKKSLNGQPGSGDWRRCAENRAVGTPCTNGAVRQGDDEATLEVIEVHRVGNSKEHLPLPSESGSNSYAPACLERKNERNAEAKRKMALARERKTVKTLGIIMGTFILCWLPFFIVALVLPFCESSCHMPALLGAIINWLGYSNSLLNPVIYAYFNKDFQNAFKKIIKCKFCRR
Use 90% as the dividing line for inhibition, with the line itself on the 1.0 side and lower values as 0.0.

                                   compound  group
0  OC(CCN1CCN(c2cccc3[nH]ccc23)CC1)c1csc2ccc(F)cc12 (stereo unspecified)    1.0
1  OC(CCN1CCN(c2cccc3cccnc23)CC1)c1csc2ccccc12 (stereo unspecified)    0.0
2  OC(CCN1CCN(c2cccc3c2OCCCO3)CC1)c1csc2ccc(F)cc12 (stereo unspecified)    0.0
3  OC(CCN1CCN(c2cccc3c2OCCO3)CC1)c1csc2ccc(F)cc12 (stereo unspecified)    1.0

* * *

biological target: 5-hydroxytryptamine receptor 1A (Rattus norvegicus) (UniProt P19327); assay: Inhibition of (+)-8-OH-DPAT stimulated [35S]GTP-gamma-S, binding in rat hippocampal membranes; assay type: functional, cell membranes; details: Hippocampus, Membrane, scale: (fM of GTP-gammaS bound)
quantity measured: Basal

>>> df
                                   compound  observed_result
0  OC(CCN1CCN(c2cccc3c2OCCCO3)CC1)c1csc2ccc(F)cc12 (configuration not stated)             18.7
1  OC(CCN1CCN(c2cccc3c2OCCO3)CC1)c1csc2ccccc12 (configuration not stated)             18.5
2  CCCN(CCC)C1CCc2cccc(O)c2C1 (configuration not stated)               13
3  OC(CCN1CCN(c2cccc3cccnc23)CC1)c1csc2ccccc12 (configuration not stated)             16.4
4  OC(CCN1CCN(c2cccc3[nH]ccc23)CC1)c1csc2ccc(F)cc12 (configuration not stated)             11.2
5  OC(CCN1CCN(c2cccc3[nH]ccc23)CC1)c1csc2ccccc12 (configuration not stated)             12.8
6  OC(CCN1CCN(c2cccc3c2OCCO3)CC1)c1csc2ccc(F)cc12 (configuration not stated)             19.1
